# Tested on: model of urethral obstruction with the guinea pigs
# Assay Explanation: Dysuria pathological model (urethral obstruction), cystometry
# Format: in vivo, guinea pig
# Experimental Parameters: 3 mg/kg i.v.; baseline before administration; mean
Endpoint: Frequency of non-voiding contraction, pre-administration (count/min)

[
  {
    "Test Smiles": "Cc1c(C(=O)O)sc2nc(Cc3cccc(Cl)c3)[nH]c(=S)c12",
    "System Tested": "model of urethral obstruction with the guinea pigs",
    "Numeric Result": 1.12
  },
  {
    "Test Smiles": "Cc1c(C(=O)O)sc2nc(Cc3cccc(Cl)c3)[nH]c(=O)c12",
    "System Tested": "model of urethral obstruction with the guinea pigs",
    "Numeric Result": 1.16
  },
  {
    "Test Smiles": "O=C(O)c1cc2c(=O)[nH]c(Cc3cccc(Cl)c3)nc2s1",
    "System Tested": "model of urethral obstruction with the guinea pigs",
    "Numeric Result": 1.44
  },
  {
    "Test Smiles": "Cc1c(C(=O)O)sc2nc(Cc3ccc(Cl)c(Cl)c3)[nH]c(=O)c12",
    "System Tested": "model of urethral obstruction with the guinea pigs",
    "Numeric Result": 1.16
  }
]

---

# Tested on: model of urethral obstruction with the guinea pigs
# Assay Explanation: Dysuria pathological model (urethral obstruction), cystometry
# Type: in vivo, guinea pig
# Experimental Parameters: 10 mg/kg i.v.; up to 30 min after administration; mean
Endpoint: Frequency of non-voiding contraction, post-administration (count/min)

[
  {
    "Test Smiles": "Cc1c(C(=O)O)sc2nc(Cc3cccc(Cl)c3)[nH]c(=S)c12",
    "Unit Info": "count/min",
    "Numeric Result": 0.59
  },
  {
    "Test Smiles": "Cc1c(C(=O)O)sc2nc(Cc3cccs3)[nH]c(=O)c12",
    "Unit Info": "count/min",
    "Numeric Result": 0.78
  },
  {
    "Test Smiles": "Cc1c(C(=O)O)sc2nc(Cc3ccc(Cl)c(Cl)c3)[nH]c(=O)c12",
    "Unit Info": "count/min",
    "Numeric Result": 0.64
  },
  {
    "Test Smiles": "Cc1c(C(=O)O)sc2nc(Cc3cccc(Cl)c3)[nH]c(=O)c12",
    "Unit Info": "count/min",
    "Numeric Result": 0.60
  },
  {
    "Test Smiles": "O=C(O)c1cc2c(=O)[nH]c(Cc3cccc(Cl)c3)nc2s1",
    "Unit Info": "count/min",
    "Numeric Result": 0.83
  }
]
